Target: recombinant Axl tyrosine kinase (Homo sapiens, UniProt P30530)
Construct: encompassing amino acids 473 to 894 of Axl; GST (N); made in house; host or cells: SF126 insect cells
Sequence (P30530 473-894): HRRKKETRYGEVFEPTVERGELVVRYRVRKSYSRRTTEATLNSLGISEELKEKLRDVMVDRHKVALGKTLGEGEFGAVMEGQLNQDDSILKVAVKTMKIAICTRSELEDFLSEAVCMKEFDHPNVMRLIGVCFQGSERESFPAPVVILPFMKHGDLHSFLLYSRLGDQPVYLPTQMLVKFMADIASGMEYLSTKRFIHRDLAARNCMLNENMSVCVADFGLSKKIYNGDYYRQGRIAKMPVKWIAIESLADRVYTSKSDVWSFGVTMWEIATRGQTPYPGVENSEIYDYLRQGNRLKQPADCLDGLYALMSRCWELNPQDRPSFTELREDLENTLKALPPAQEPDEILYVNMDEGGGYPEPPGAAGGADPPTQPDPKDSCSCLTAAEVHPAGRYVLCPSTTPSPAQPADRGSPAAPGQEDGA
Assay: In vitro Axl kinase assay (AlphaScreen), Test (a)
Type: biochemical
Details: test compound at 1 μM; first value quoted
Protocol: Test compounds were prepared as 10 mM stock solutions in dimethylsulphoxide (DMSO) and diluted in DMSO as required. Aliquots (120 nl) of compound dilutions were filled into the wells of a Greiner 384-well low volume (LV) white polystyrene plate (Greiner Bio-one) using acoustic dispensing (Labcyte Echo 550). […]
Catalogue of compounds with associated % Axl tyrosine kinase inhibition at 1 μM concentration
Dear colleague, please return just the value in %, with no unit written.

Recorded results for 8 compounds are shown here.
# COMPOUND, UNIT DESCRIPTOR, OBS VALUE
measured = [
    ("COc1cc(-c2cnc(N)c(-c3nc4ncccc4o3)c2)ccc1OCCCN1CCNCC1 [Example 43C.32]", "%", 99.8),
    ("CS(=O)(=O)N1CCC(n2cc(-c3cnc(N)c(-c4nc5ncccc5o4)c3)cn2)CC1 [Example 55.1]", "%", 99.0),
    ("NCc1cccc(-c2cnc(N)c(-c3nc4ccccc4o3)c2)c1 [Example 2.4]", "%", 99.1),
    ("COc1cc(-c2cnc(N)c(-c3nc4ncccc4o3)c2)ccc1OC1CCCNC1 (centres unmarked) [Example 43C.26]", "%", 99.6),
    ("COCc1nn(C2CCN(C)CC2)cc1-c1cnc(N)c(-c2nc3cccc(OC)c3o2)c1 [Example 41.43]", "%", 100.0),
    ("COc1cc(-c2cnc(N)c(-c3nc4ncccc4o3)c2)ccc1OC1CC2CCC(C1)N2C (centres unmarked) [Example 43C.19]", "%", 99.7),
    ("Nc1ncc(-c2ccc(C(=O)N3CCC4(CCCNC4)CC3)cc2)cc1-c1nc2cccnc2o1 [Example 45A.87]", "%", 77.4),
    ("Nc1ncc(-c2ccc(CO)s2)cc1-c1nc2cnccc2o1 [Example 8A.5]", "%", 96.8),
]

Query: For Nc1ncc(-c2cccc(N3CCOCC3)c2)nc1-c1nc2ccccc2o1 [Example 20.8] , what is its reported % Axl tyrosine kinase inhibition at 1 μM concentration?
Response: 98.9

Query: Give its % Axl tyrosine kinase inhibition at 1 μM concentration value. Item: Nc1ncc(-c2ccc(OCC3CCNCC3)cc2)cc1-c1nc2ncccc2o1 [Example 43B.36]
Response: 98.3

Query: Field request: % Axl tyrosine kinase inhibition at 1 μM concentration | item: NC(=O)c1nn(C2CCNCC2)cc1-c1cnc(N)c(-c2nc3ccccc3o2)c1 [Example 62.5]
Response: 99.5

Query: If you can, please state the reported % Axl tyrosine kinase inhibition at 1 μM concentration value of COCCN1CCN(C(=O)c2ccc(-c3cnc(N)c(-c4nc5cccnc5o4)c3)cc2)CC1 [Example 45A.59] .
Response: 88.8

Query: I'd like to know its % Axl tyrosine kinase inhibition at 1 μM concentration. The compound in question is Nc1ncc(-c2ccc3[nH]ncc3c2)cc1-c1nc2ccccc2o1 [Example 2.23]
Response: 87.2

Query: Return reported % Axl tyrosine kinase inhibition at 1 μM concentration; argument: Nc1ncc(-c2ccc(OCCOCCN3CCNCC3)cc2)cc1-c1nc2ncccc2o1 [Example 43B.43]
Response: 92.3

Query: Need % Axl tyrosine kinase inhibition at 1 μM concentration, item Nc1ncc(-c2ccc(OCCCN3CCCC3)cc2)cc1-c1nc2ncccc2o1 [Example 43B.18]
Response: 99.9

Query: Look up % Axl tyrosine kinase inhibition at 1 μM concentration for this compound: CN(C)S(=O)(=O)c1ccc(-c2cnc(N)c(-c3nc4ccccc4o3)n2)cc1 [Example 20.12]
Response: 92.7

Query: Query (compound): CN1CCC(n2cc(-c3cnc(N)c(-c4nc5ncccc5o4)c3)cn2)CC1 [Example 41.4] ; field requested: % Axl tyrosine kinase inhibition at 1 μM concentration
Response: 99.8
